- Assay Explanation: Cmax in C57BL6 mouse at 30 mg/kg, po
- Assay type: ADME, organism-based
- Design: route oral, dose 30 mg/kg
- Measurement Conditions: in vivo
The molecules listed here are annotated with their Cmax.
Property Measured: Cmax (µM)

Smiles String	Readout Number
COc1ccc(NC(=O)C2=C(c3ccc(C)cc3)C[C@](c3ccc(OCCCC(F)(F)F)cc3)(C(F)(F)F)NC2=O)cc1	0.16
Cc1ccc(C2=C(c3nnn[nH]3)C(=O)N[C@@](c3ccc(OCCCC(F)(F)F)cc3)(C(F)(F)F)C2)cc1	11
Cc1ccc(C2=C(c3nnn[nH]3)C(=O)N[C@@](c3ccc(OCCCCCC(F)(F)F)cc3)(C(F)(F)F)C2)cc1	4.3

* * *

The molecules listed here are annotated with their solubility.
- Assay Explanation: Aqueous solubility of compound at pH 7.4
- Assay type: physicochemical
- Measurement Conditions: buffer

Molecule	Bound Operator	solubility (µg/mL)
Cc1ccc(C2=C(c3nnn[nH]3)C(=O)N[C@@](c3ccc(OCCCC(F)(F)F)cc3)(C(F)(F)F)C2)cc1 [BMS-963272]	>	2450
Cc1ccc(C2=C(c3nnn[nH]3)C(=O)N[C@@](c3ccc(OCCCCCC(F)(F)F)cc3)(C(F)(F)F)C2)cc1	=	1130

* * *

- Assay Explanation: Permeability of compound at pH 5.5 by PAMPA assay
- Type: ADME
- Measurement Conditions: read-out: permeability
The compounds listed here are annotated with their Papp.
Property Measured: Papp (×10⁻⁶ cm/s)

Compound	Property Measured	Readout Number
Cc1ccc(C2=C(c3nnn[nH]3)C(=O)N[C@@](c3ccc(OCCCC(F)(F)F)cc3)(C(F)(F)F)C2)cc1 [BMS-963272]	Papp	47.9
Cc1ccc(C2=C(c3nnn[nH]3)C(=O)N[C@@](c3ccc(OCCCCCC(F)(F)F)cc3)(C(F)(F)F)C2)cc1	Papp	46.6

* * *

The compounds listed here are annotated with their bioavailability.
- Assay Explanation: Oral bioavailability in C57BL6 mouse at 30 mg/kg
- Assay type: ADME, organism-based
- Measurement Conditions: in vivo

Smiles String	Unit	bioavailability
Cc1ccc(C2=C(c3nnn[nH]3)C(=O)N[C@@](c3ccc(OCCCCCC(F)(F)F)cc3)(C(F)(F)F)C2)cc1	%	88
COc1ccc(NC(=O)C2=C(c3ccc(C)cc3)C[C@](c3ccc(OCCCC(F)(F)F)cc3)(C(F)(F)F)NC2=O)cc1	%	15
Cc1ccc(C2=C(c3nnn[nH]3)C(=O)N[C@@](c3ccc(OCCCC(F)(F)F)cc3)(C(F)(F)F)C2)cc1	%	50

* * *

The compounds listed here are annotated with their solubility.
- Assay Explanation: Aqueous solubility of compound at pH 1
- Assay type: physicochemical
- Measurement Conditions: buffer

Smiles String	Bound Operator	solubility (µg/mL)
Cc1ccc(C2=C(c3nnn[nH]3)C(=O)N[C@@](c3ccc(OCCCC(F)(F)F)cc3)(C(F)(F)F)C2)cc1	=	11
Cc1ccc(C2=C(c3nnn[nH]3)C(=O)N[C@@](c3ccc(OCCCCCC(F)(F)F)cc3)(C(F)(F)F)C2)cc1	=	1
COc1ccc(NC(=O)C2=C(c3ccc(C)cc3)C[C@](c3ccc(OCCCC(F)(F)F)cc3)(C(F)(F)F)NC2=O)cc1	<	1

* * *

- Assay Explanation: Permeability of compound at pH 7.4 by PAMPA assay
- Assay type: ADME
- Measurement Conditions: read-out: permeability
Property Measured: Papp (×10⁻⁶ cm/s)

Smiles String	Property Measured	Unit	Readout Number
Cc1ccc(C2=C(c3nnn[nH]3)C(=O)N[C@@](c3ccc(OCCCC(F)(F)F)cc3)(C(F)(F)F)C2)cc1	Papp	×10⁻⁶ cm/s	17.9
Cc1ccc(C2=C(c3nnn[nH]3)C(=O)N[C@@](c3ccc(OCCCCCC(F)(F)F)cc3)(C(F)(F)F)C2)cc1	Papp	×10⁻⁶ cm/s	34.1
